So I've got a bunch of compounds here, and I need their Ki values.
target: Carbonic anhydrase 9 (Homo sapiens, UniProt Q16790)
Give bare numbers, in nM.

NS(=O)(=O)c1ccc(-c2ccc(Cc3ccccc3)cc2)cc1 | 519
NS(=O)(=O)c1ccc(-c2ccc(C(O)c3ccc([N+](=O)[O-])cc3)cc2)cc1 (stereo not drawn) | 678

Now look at this one.
## Task Look up and report Ki, with Carbonic anhydrase 9 (Homo sapiens, UniProt Q16790) as system, for NS(=O)(=O)c1ccc(-c2ccc(Cc3ccc([N+](=O)[O-])cc3)cc2)cc1
## Result 705

###

Carbonic anhydrase 12 (Homo sapiens, UniProt O43570) measurements of pKi, listed per entry.
Sequence (O43570 whole entry): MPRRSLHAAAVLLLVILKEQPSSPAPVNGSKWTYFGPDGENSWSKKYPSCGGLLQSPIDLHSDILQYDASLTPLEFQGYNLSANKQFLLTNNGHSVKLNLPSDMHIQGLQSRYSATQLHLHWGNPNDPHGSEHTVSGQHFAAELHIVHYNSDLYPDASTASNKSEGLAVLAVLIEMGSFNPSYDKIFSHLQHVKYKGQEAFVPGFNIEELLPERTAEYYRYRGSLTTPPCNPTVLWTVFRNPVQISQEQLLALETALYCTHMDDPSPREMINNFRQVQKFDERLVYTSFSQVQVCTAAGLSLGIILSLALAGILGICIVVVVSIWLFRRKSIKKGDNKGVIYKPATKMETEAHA
One number for each entry, as −log10 of the molar value.

Study these solved cases before continuing.
NS(=O)(=O)c1ccc(-c2ccc(Cc3ccccc3)cc2)cc1 | 7.11
CC(C)(C)OC(=O)c1ccc(-c2ccc(S(N)(=O)=O)cc2)cc1 | 7.35
COC(=O)c1ccc(C(O)c2ccc(-c3ccc(S(N)(=O)=O)cc3)cc2)cc1 (centres undefined) | 8.17

Now look at this one.
## Task Indicate its recorded pKi; the compound in question is Nc1ccc(Cc2ccc(-c3ccc(S(N)(=O)=O)cc3)cc2)cc1
## Result 8.09
